# maps each entry to its growth
- Tested on: SR leukemia
- MEASUREMENT PROTOCOL: NCI-60 one-dose screen, 48 h (100 = growth as untreated, 0 = no growth, -100 = all killed)
- SETTINGS: 10 µM unless noted
The panel holds about 83,000 compounds, 20% with a hit somewhere; the sample as a whole holds those more often. Activity calls are given as the source filed them. Rule for the calls: active = growth percent below 10; inactive = the rest.

Cc1ccc2nc3c(n2c1)C(=O)C(=O)c1ccccc1-3: -44.5% (active)
Cc1nn(-c2nc3ccccc3s2)c(C)c1Oc1ccccc1O: 19.6% (inactive)
Nc1ccn(C2O[C@H](CO)[C@@H](O)[C@@H]2O)c(=O)n1 (stereo not given in full): 9.93% (active)
O=C(N/N=C/c1cccc(O)c1)c1ccc(C(F)(F)F)nc1Nc1cccc(C(F)(F)F)c1: -38.7% (active)
CC1CC=CCC1C1OCC(C)(C)CO1 (stereo not given): 96.4% (inactive)

Please look up its growth: CN(C)CCC(=O)Nc1ccc(-n2cc(-c3cccc(NC(=S)Nc4cccc(-c5cn(-c6ccc(NC(=O)CCN(C)C)cc6)nn5)c4)c3)nn2)cc1
25.9% (inactive)

Please look up its growth: Cc1cc2ccccn2c1C(=O)c1ccc(C(=O)c2ccccc2)cc1
-3.06% (active)

Please look up its growth: C[C@@H]1CN(c2nc3c(cc2F)c(=O)c(C(=O)O)cn3C(C)(C)C)C[C@H](C)N1
115% (inactive)

Please look up its growth: COc1cc(C2CC(c3ccc(C)cc3)=NN2C=O)ccc1OCCN(C)C (stereo not given)
89.2% (inactive)

Please look up its growth: O=C(C(=O)c1cc(Br)ccc1O)c1cc(Br)ccc1O
24.3% (inactive)

###

# maps each entry to its growth
- System: M14 melanoma
- MEASUREMENT PROTOCOL: NCI-60 one-dose screen, 48 h (100 = growth as untreated, 0 = no growth, -100 = all killed)
- SETTINGS: 10 µM unless noted
This is part of a sample that, as a whole, favours compounds with a hit. Of some 83,000 tested, about 20% had one in any assay.
The answer is to be given in %; state only the numeric part.

Check out these entries, answers already filled in.
O[N+]1=CC=CCC1=S.On1ccccc1=S.[Zn]: -74.2
N#Cc1c(-c2ccccc2)cc(-c2ccccc2)n(CCCCCCC(=O)O)c1=O: 101
COc1ccc2nc(N/N=C(\C)c3ccccn3)cc(C)c2c1: -78.7
O=c1c2ccccc2c2nccn2c2cc(Cl)ccc12: 110
OC(c1ccccc1)C(NCc1ccccc1)c1ccccc1 (stereo unspecified): 79.9

Please look up its growth: O=C(O)c1ccc2cccnc2c1O
8.98

Please look up its growth: COc1cccc(N2CCN(c3cccc(C)n3)CC2)c1
89.9

Please look up its growth: CCCCCN1C(=O)CCC1=O
107

Please look up its growth: O=C(CN1CCN(c2ccc(Cl)cc2)CC1)N1CCN(c2nnc(-c3ccc(Cl)cc3)c(-c3ccc(Cl)cc3)n2)CC1
74.3

Please look up its growth: CC1(C)CC2(C)CC(=O)C1C(C(=O)O)C2C(=O)O (stereo unspecified)
119

Please look up its growth: CC(=O)[C@H]1CC[C@H]2[C@@H]3C[C@H](C)C4=CC(=O)CC[C@]4(C)[C@H]3C(=O)C[C@]12C
101

###

- Test system: A498 renal
- MEASUREMENT PROTOCOL: NCI-60 one-dose screen, 48 h
- SETTINGS: 10 µM unless noted
About 83,000 compounds went through this panel and 20% of them were active in at least one assay; those are over-represented in the sample as a whole. Calls of active or inactive are those of the source. Rule for the calls: active = growth percent below 10; inactive = the rest.
Log the outcome using a class from Yes for active, No for inactive

Outcome? CCCCCCCSc1ncnc2[nH]ncc12
No

Outcome? COc1ccc(CCN2C(=O)CCC3=C2CCCC3=O)cc1OC
No

Outcome? CC(C)Cn1cnc2c(NCn3nc(-c4cc(Cl)cc(Cl)c4Cl)n(/N=C/c4ccc(Cl)cc4)c3=S)nc3ccccc3c21
No

Outcome? O=C1c2cccc(NCCN=Cc3ccccc3O)c2C(=O)c2c(NCCN=Cc3ccccc3O)cccc21
No

Outcome? C/C(=C\CCc1ccoc1)CC/C=C(\C)CCCN1CCOCC1
No

Outcome? CC(C)=CCNc1ncnc2c1ncn2C1OC(COP(=O)(O)O)C(O)C1O (stereo not given)
Yes

Outcome? c1ccc2c(-c3nc4ccccc4[nH]3)cccc2c1
No

Outcome? FC(F)(F)c1cc(-c2nnc3n2N=C(N2CCCC2)CS3)cc(C(F)(F)F)c1
No

Outcome? O=C1CSC(c2ccccc2O)N1c1nnc(Cn2ccnc2)o1 (stereo not given)
No

Outcome? O=C(N/N=C/c1ccc(Cl)cc1Cl)c1ccccc1Nc1cccc(C(F)(F)F)c1
Yes

###

- Tested on: RPMI-8226 leukemia
- MEASUREMENT PROTOCOL: NCI-60 one-dose screen, 48 h (100 = growth as untreated, 0 = no growth, -100 = all killed)
- SETTINGS: 10 µM unless noted
About 83,000 compounds went through this panel and 20% of them were active in at least one assay; those are over-represented in the sample as a whole. Calls of active or inactive are those of the source. How the source made its calls: active means growth percent below 10; inactive means the rest.
# maps each entry to its growth

Find growth (RPMI-8226 leukemia) for the entry O=C1Nc2ccc(Cl)cc2[C@@](C#CC2CC2)(C(F)(F)F)O1
92.2% (inactive)

Find growth (RPMI-8226 leukemia) for the entry C/C(=C\CCc1ccoc1)CC/C=C(\C)CCCN1CCOCC1
20.8% (inactive)

Find growth (RPMI-8226 leukemia) for the entry COc1cc(C(=O)/C=C/c2cccc(Nc3ccnc4cc(Cl)ccc34)c2)cc(OC)c1OC
-15.9% (active)

Find growth (RPMI-8226 leukemia) for the entry COc1cc2c(cc1OC)C(=O)/C(=C/c1cccc(OCC(=O)c3ccccc3)c1)C2
43.3% (inactive)

###

- Tested on: MDA-MB-231 breast
- MEASUREMENT PROTOCOL: NCI-60 one-dose screen, 48 h
- SETTINGS: 10 µM unless noted
- Description: Cells are grown in 96 well plates and exposed to the test compound for 48 hours. Compounds are tested at a single concentration, which is 10^-5 M for most compounds. The reported endpoint is percent growth (GI% or GIPRCNT), where numbers from 0 - 100% represent growth inhibition, and numbers from -100% - 0 represent cell death. For example, a value of 40 represents 60% growth inhibition. A value of 0 means no net growth occurred over the course of the experiment. […]
The panel holds about 83,000 compounds, 20% with a hit somewhere; the sample as a whole holds those more often. Active and inactive are the calls of the source. The calls were made as follows: active = growth percent below 10; inactive = the rest.
Log the outcome using a class from active, inactive

Outcome? COc1ccc(CCN2C(=O)CCC3=C2CCCC3=O)cc1OC
inactive

###

# maps each entry to its growth
- Test system: SN12C renal
- MEASUREMENT PROTOCOL: NCI-60 one-dose screen, 48 h (100 = growth as untreated, 0 = no growth, -100 = all killed)
- SETTINGS: 10 µM unless noted
Compounds without any hit were thinned out: in the full panel of roughly 83,000, 20% have a hit.
The answer is to be given in %; state only the numeric part.

Clc1ccc(C2=NN(c3ccc(Cl)cc3)C(c3cccc(Nc4ccnc5cc(Cl)ccc45)c3)C2)cc1 (stereo unspecified): 77.7
Cc1ncc(C(=O)Nc2ccc(CN3CCN(C)CC3)c(C(F)(F)F)c2)cc1C#Cc1cncc2ncccc12: 50.6
OCc1n(Cc2ccc3ccccc3c2)cc[n+]1Cc1ccc2ccccc2c1: 41.7
COc1ccc(C2=NN(C(N)=S)C(c3ccc4c(c3)OCO4)C2)cc1 (stereo unspecified): 31
CC1CC=CCC1C1OCC(C)(C)CO1 (stereo unspecified): 103
C(=C1c2ccccc2-c2ccccc21)c1ccncc1: 51.2
CCCCCCCCCCCCCCCCNC(=O)Nc1ccc2ccccc2c1: 89.7
NC(=O)c1cc(Cl)ccc1NC(=O)c1ccccc1-c1ccccc1: 51.9
CCOc1nc(-c2ccco2)n2nc(-c3ccco3)cc2n1: 104
CC(C)Sc1nc(Cl)c(C#N)c(-c2ccc(F)cc2)n1: 97.3

Now for a further compound.
Please look up its growth: CCOC1Oc2ccccc2C(=O)/C1=N/c1nccs1 (stereo unspecified)
76.4

###

# maps each entry to its growth
- System: SK-MEL-5 melanoma
- MEASUREMENT PROTOCOL: NCI-60 one-dose screen, 48 h (100 = growth as untreated, 0 = no growth, -100 = all killed)
- SETTINGS: 10 µM unless noted
Compounds without any hit were thinned out: in the full panel of roughly 83,000, 20% have a hit. Activity calls are given as the source filed them. The calls were made as follows: active = growth percent below 10; inactive = the rest.

Check out these entries, answers already filled in.
COc1ccc(CNC(=O)c2c(C)n([O-])c3cc(F)c(F)cc3[n+]2=O)cc1: 97.5% (inactive)
COc1ccc2c(c1)CC/C(=C\c1ccc(OCC(=O)Nc3nc4ccccc4s3)cc1)C2=O: 91.6% (inactive)
CCOC(=O)CNC(=O)C1(NC(=O)CNC(=O)OCc2ccccc2)CCCC1: 112% (inactive)
O=C(c1ccccc1)C(CN1CCCCC1)c1ccccc1 (stereo not given): 58.8% (inactive)
COC(=O)CC1=C(c2ccc([N+](=O)[O-])cc2)CCC1=O: 103% (inactive)

Please look up its growth: NC(=NCCCCCCN=C(N)/N=C(\N)Nc1ccc(Cl)cc1)/N=C(\N)Nc1ccc(Cl)cc1
-95.7% (active)

Please look up its growth: O=C1CSC(c2ccccc2O)N1c1nnc(Cn2ccnc2)o1 (stereo not given)
55.1% (inactive)

Please look up its growth: O=C1C2C(C(=O)N1CC[Se][Se]CCN1C(=O)C3C(C1=O)[C@H]1C=C[C@@H]3C1)[C@H]1C=C[C@@H]2C1 (stereo not given in full)
-53.9% (active)

Please look up its growth: Cc1ccc(-c2c3c(N)nc(-c4ccncc4)nc3nc3c2c(C)nn3-c2ccccc2)cc1
55.3% (inactive)

Please look up its growth: O=C(CNC(=O)c1cccc2ccccc12)Nc1ccccc1Cc1ccccc1
34.4% [5 µM] (inactive)
